Data provenance is ChEMBL document CHEMBL4014323.

Let's look at some compounds and their measured EC50.
target: D(2) dopamine receptor (Homo sapiens); format: cell-based, HEK-293T
Description: Partial agonist activity at human D2SR expressed in HEK293T cells co-expressing (EA)beta-arrestin2 assessed as induction of beta-arrestin2 recruitment after 5 hrs by chemiluminescence assay
Output spec: scalar in nM, unitless text.

Below, 5 compounds whose answers are already recorded.
CCCCn1cc(CCCOc2ccc(C(=O)NCCCN3CCCN(c4ccc(O)c5[nH]c(=O)ccc45)CC3)cc2OC)nn1: 680
O=C1CCc2ccc(OCCCCN3CCCN(c4ccc(O)c5c4OCC(=O)N5)CC3)cc2N1: 470
CCCCn1cc(CCCOc2ccc(C(=O)NCCCCN3CCCN(c4ccc(O)c5[nH]c(=O)ccc45)CC3)cc2OC)nn1: 1600
CCCN(CCc1cccs1)[C@H]1CCc2c(O)cccc2C1: 4.1
O=c1ccc2c(N3CCCN(CCCCOc4ccn5nccc5c4)CC3)ccc(O)c2[nH]1: 370

In plain terms, O=C1CCc2ccc(OCCCCN3CCN(c4ccc(O)c5c4OCC(=O)N5)CC3)cc2N1 has a documented EC50 of 92

In plain terms, O=C1CCc2ccc(OCCCCN3CCN(c4ccc(O)c5[nH]c(=O)ccc45)CC3)cc2N1 has a documented EC50 of 93

====

biological target: D(2) dopamine receptor (Homo sapiens, UniProt P14416); experiment: biochemical; format: cell-based
Sequence (P14416 whole entry): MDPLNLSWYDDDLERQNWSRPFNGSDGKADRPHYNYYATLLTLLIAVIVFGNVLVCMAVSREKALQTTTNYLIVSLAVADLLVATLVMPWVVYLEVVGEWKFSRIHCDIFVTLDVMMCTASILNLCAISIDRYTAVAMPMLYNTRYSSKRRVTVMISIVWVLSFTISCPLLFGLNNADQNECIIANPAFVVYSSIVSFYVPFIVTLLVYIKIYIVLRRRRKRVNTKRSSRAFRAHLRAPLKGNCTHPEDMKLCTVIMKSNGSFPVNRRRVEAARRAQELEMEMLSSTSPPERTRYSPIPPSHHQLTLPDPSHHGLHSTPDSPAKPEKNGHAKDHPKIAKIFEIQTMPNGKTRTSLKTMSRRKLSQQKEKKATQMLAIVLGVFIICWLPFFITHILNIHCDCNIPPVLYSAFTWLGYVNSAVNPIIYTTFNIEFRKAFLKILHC
Description: Displacement of [3H]spiperone from human D2SR expressed in CHO cell membranes by radioligand binding assay
Lab note - cut at 20 nM for Ki: satisfied if strictly below, not satisfied if not.

O=c1ccc2c(N3CCN(CCCCOc4ccn5nccc5c4)CC3)ccc(O)c2o1: satisfied
CCCCn1cc(CCCOc2ccc(C(=O)NCCCCN3CCCN(c4ccc(O)c5[nH]c(=O)ccc45)CC3)cc2OC)nn1: not satisfied
O=C1CCc2ccc(OCCCCN3CCN(c4ccc(O)c5oc(=O)ccc45)CC3)cc2N1: satisfied
O=C1CCc2ccc(OCCCCN3CCCN(c4ccc(O)c5c4OCC(=O)N5)CC3)cc2N1: satisfied
O=C1CCc2ccc(OCCCCN3CCN(c4ccc(O)c5[nH]c(=O)ccc45)CC3)cc2N1: satisfied

Switching to the query record.
IN: In plain terms, does O=C1CCc2ccc(OCCCCN3CCN(c4ccc(O)c5ncccc45)CC3)cc2N1 come in under 20 nM for Ki?
OUT: satisfied

====

experiment: Half life in Sprague-Dawley rat liver microsomes at 20 uM by HPLC analysis; format: ADME, microsome
Let's look at some compounds and their measured half-life at 20 µM.
Output spec: scalar in min, unitless text.

CCCN(CCc1cccs1)[C@H]1CCc2c(O)cccc2C1: 5.8

In plain terms, O=C1CCc2ccc(OCCCCN3CCCN(c4ccc(O)c5[nH]c(=O)ccc45)CC3)cc2N1 has a documented half-life at 20 µM of 130

In plain terms, O=c1ccc2c(N3CCCN(CCCCOc4ccn5nccc5c4)CC3)ccc(O)c2[nH]1 has a documented half-life at 20 µM of 51

====

target: hERG (KCNH2) (Homo sapiens, UniProt Q12809); assay: Inhibition of human ERG expressed in CHO cells assessed as tail current remaining at 10 uM and -40 holding potential by automated patch-clamp assay; assay type: cell-based; conditions: CHO cells expressing human ERG, read-out: Activity
Sequence (Q12809 whole entry): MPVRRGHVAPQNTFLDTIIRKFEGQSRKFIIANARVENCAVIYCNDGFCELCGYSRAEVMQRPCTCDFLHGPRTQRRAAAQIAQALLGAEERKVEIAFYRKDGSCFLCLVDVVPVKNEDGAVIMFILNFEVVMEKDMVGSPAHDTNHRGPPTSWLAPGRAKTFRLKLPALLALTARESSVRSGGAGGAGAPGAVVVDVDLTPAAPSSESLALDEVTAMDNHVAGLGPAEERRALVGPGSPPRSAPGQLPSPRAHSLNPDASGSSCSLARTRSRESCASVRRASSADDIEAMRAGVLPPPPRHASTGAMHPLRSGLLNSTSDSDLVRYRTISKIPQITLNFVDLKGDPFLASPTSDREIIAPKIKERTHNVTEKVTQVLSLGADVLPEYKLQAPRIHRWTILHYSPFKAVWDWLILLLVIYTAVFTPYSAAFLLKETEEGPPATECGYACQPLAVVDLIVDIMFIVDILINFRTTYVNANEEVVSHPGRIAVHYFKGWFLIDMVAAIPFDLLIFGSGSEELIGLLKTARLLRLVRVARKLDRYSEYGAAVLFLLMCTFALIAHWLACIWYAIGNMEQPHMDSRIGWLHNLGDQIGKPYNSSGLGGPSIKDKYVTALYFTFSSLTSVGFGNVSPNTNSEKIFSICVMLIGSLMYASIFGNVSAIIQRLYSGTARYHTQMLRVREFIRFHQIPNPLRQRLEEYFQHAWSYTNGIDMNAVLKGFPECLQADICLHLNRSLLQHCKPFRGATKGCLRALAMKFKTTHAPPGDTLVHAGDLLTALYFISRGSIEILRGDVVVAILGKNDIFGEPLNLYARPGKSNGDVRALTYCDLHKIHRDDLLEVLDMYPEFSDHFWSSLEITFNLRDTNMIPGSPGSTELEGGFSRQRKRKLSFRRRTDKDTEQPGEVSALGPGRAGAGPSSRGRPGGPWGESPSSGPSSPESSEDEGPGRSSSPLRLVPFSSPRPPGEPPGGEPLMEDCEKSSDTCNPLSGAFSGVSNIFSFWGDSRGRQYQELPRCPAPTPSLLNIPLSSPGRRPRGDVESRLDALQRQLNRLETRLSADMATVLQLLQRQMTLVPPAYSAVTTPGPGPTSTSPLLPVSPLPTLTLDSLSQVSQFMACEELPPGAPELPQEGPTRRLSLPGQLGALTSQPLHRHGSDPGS
parameter: activity at 10 µM (%)
Output spec: scalar in %, unitless text.

In plain terms, O=C1CCc2ccc(OCCCCN3CCCN(c4ccc(O)c5[nH]c(=O)ccc45)CC3)cc2N1 has a documented activity at 10 µM of 71.7

====

biological target: D(1A) dopamine receptor (Homo sapiens, UniProt P21728); test: biochemical
Sequence (P21728 whole entry): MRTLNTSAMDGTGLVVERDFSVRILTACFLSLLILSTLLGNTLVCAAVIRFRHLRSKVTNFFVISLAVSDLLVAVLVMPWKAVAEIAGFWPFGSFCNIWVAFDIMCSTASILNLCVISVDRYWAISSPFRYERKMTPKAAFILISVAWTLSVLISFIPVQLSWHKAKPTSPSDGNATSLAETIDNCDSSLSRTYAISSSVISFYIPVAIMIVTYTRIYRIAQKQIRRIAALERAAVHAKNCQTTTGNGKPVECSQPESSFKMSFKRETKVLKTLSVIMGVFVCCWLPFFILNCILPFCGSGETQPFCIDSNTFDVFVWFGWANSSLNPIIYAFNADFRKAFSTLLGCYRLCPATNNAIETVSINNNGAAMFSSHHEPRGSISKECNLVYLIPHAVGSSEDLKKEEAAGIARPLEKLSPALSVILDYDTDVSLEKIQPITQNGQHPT
Description: Displacement of [3H]SCH23390 from human D1R expressed in HEK293T cell membranes by radioligand binding assay
parameter: Ki (µM)
Output spec: scalar in µM, unitless text.

Below, 2 compounds whose answers are already recorded.
O=C1CCc2ccc(OCCCCN3CCCN(c4ccc(O)c5c4OCC(=O)N5)CC3)cc2N1: 2.7
CCCCn1cc(CCCOc2ccc(C(=O)NCCCCN3CCCN(c4ccc(O)c5[nH]c(=O)ccc45)CC3)cc2OC)nn1: 4

In plain terms, O=C1CCc2ccc(OCCCCN3CCN(c4ccc(O)c5c4OCCO5)CC3)cc2N1 has a documented Ki of 4.5
